System Name: N. europaea cyt P460 (Nitrosomonas europaea)
Sequence (Q50927 27-198): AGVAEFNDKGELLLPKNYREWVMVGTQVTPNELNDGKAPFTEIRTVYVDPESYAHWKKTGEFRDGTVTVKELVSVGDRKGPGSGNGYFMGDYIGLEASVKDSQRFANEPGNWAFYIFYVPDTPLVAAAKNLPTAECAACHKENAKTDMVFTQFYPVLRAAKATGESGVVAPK
Measured Quantity: pKd
Numbers only, as −log10 of the molar value.

Form entry - test system: N. europaea cyt P460 (Nitrosomonas europaea); read-out: pKd; compound: NO [hydroxylamine]
2.05
